Recorded values, source ChEMBL document CHEMBL5252628.

- Tested on: Staphylococcus aureus
- Assay comment: Antibacterial activity against methicillin-resistant Staphylococcus aureus 2 assessed as inhibition of bacterial growth incubated for 18 to 24 hrs by broth microdilution assay
- Format: functional
- Conditions used: time 18-24 hrs
Measure: MIC

Worked examples follow.
>>> reported_measurement("COc1c(OCc2ccccc2)cc2oc3cc(OCc4ccccc4)c(CC=C(C)C)c(OCc4ccccc4)c3c(=O)c2c1CC=C(C)C")
"> 256 µg/mL"
>>> reported_measurement("COc1c(OC(C)=O)cc2oc3cc(OC(C)=O)c(CC=C(C)C)c(OC(C)=O)c3c(=O)c2c1CC=C(C)C")
"> 256 µg/mL"
>>> reported_measurement("COc1c(OCCCCCCO)cc2oc3cc(O)c(CC=C(C)C)c(O)c3c(=O)c2c1CC=C(C)C")
"> 256 µg/mL"
>>> reported_measurement("COc1c(OC(C)=O)cc2oc3cc(OC(C)=O)c(CC=C(C)C)c(O)c3c(=O)c2c1CC=C(C)C")
"> 256 µg/mL"

Below are 4 compounds. Give each one its MIC.
1. C=CCOc1cc2oc3cc(OCC=C)c(OC)c(CC=C(C)C)c3c(=O)c2c(OC(C)=O)c1CC=C(C)C
2. COc1c(O)cc2oc3cc(O)c(CC=C(C)C)c(O)c3c(=O)c2c1CC=C(C)C
3. COc1c(O)cc2oc3cc(O)c(CC=C(C)C)c(OC(=O)C(C)C)c3c(=O)c2c1CC=C(C)C
4. COc1c(OC(=O)C(C)C)cc2oc3cc(OC(=O)C(C)C)c(CC=C(C)C)c(OC(=O)C(C)C)c3c(=O)c2c1CC=C(C)C

a:
> 256 µg/mL
2 µg/mL
2 µg/mL
> 256 µg/mL

* * *

- Test system: Staphylococcus aureus
- Assay comment: Antibacterial activity against Staphylococcus aureus ATCC 33591 assessed as inhibition of bacterial growth incubated for 18 to 24 hrs by broth microdilution assay
- Format: functional
- Conditions used: time 18-24 hrs
What MIC was measured for each of the following?

>>> reported_measurement("COc1c(O)cc2oc3cc(OC(C)=O)c(CC=C(C)C)c(O)c3c(=O)c2c1CC=C(C)C")
"> 256 µg/mL"
>>> reported_measurement("C=CCOc1cc2oc3cc(O)c(CC=C(C)C)c(O)c3c(=O)c2c(CC=C(C)C)c1OC")
"256 µg/mL"
>>> reported_measurement("C=CCOc1cc2oc3cc(OCC=C)c(OC)c(CC=C(C)C)c3c(=O)c2c(OC(=O)C(C)C)c1CC=C(C)C")
"> 256 µg/mL"
>>> reported_measurement("COc1c(OC(=O)C(C)C)cc2oc3cc(OC(=O)C(C)C)c(CC=C(C)C)c(O)c3c(=O)c2c1CC=C(C)C")
"> 256 µg/mL"

Now, please, on to the next compound.
q: Which value of MIC has been reported for "COc1c(OC(C)=O)cc2oc3cc(O)c(CC=C(C)C)c(O)c3c(=O)c2c1CC=C(C)C" in the records?
a: 2 µg/mL

* * *

- Assay comment: Hemolytic activity in rabbit RBC assessed as hemolysis incubated for 1 hr by microtiter plate method
- Assay type: toxicity, cell-based, Oryctolagus cuniculus, Erythrocyte
- Conditions used: red blood cells
What HC50 at 1 h was measured for each of the following?

Below are 3 compounds. Give each one its HC50 at 1 h.
1. COc1c(O)cc2oc3cc(O)c(CC=C(C)C)c(OC(=O)C(C)C)c3c(=O)c2c1CC=C(C)C
2. COc1c(O)cc2oc3cc(O)c(CC=C(C)C)c(OC(C)=O)c3c(=O)c2c1CC=C(C)C
3. C=CCOc1cc2oc3cc(O)c(CC=C(C)C)c(O)c3c(=O)c2c(CC=C(C)C)c1OC

a:
1: 263 µg/mL; 2: 6.3 µg/mL; 3: 403 µg/mL

Below are 4 compounds. Give each one its HC50 at 1 h.
1. COc1c(OC(C)=O)cc2oc3cc(O)c(CC=C(C)C)c(O)c3c(=O)c2c1CC=C(C)C
2. COc1c(OC(C)=O)cc2oc3cc(OC(C)=O)c(CC=C(C)C)c(OC(C)=O)c3c(=O)c2c1CC=C(C)C
3. COc1c(O)cc2c(c1CC=C(C)C)Cc1c(cc(O)c(CC=C(C)C)c1O)O2
4. COc1c(O)cc2oc3cc(O)c(CC=C(C)C)c(O)c3c(=O)c2c1CC=C(C)C [MANGOSTIN]

a:
1: > 500 µg/mL; 2: > 500 µg/mL; 3: > 500 µg/mL; 4: 26.2 µg/mL

* * *

- Test system: A549
- Assay comment: Cytotoxicity against human A549 cells assessed as reduction in cell viability at 25 ug/ml incubated for 72 hrs by CCK-8 assay
- Format: toxicity, cell-based
- Conditions used: a549, 72 h, dose 25 µg/ml
Measure: Activity

>>> reported_measurement("COc1c(OC(C)=O)cc2oc3cc(OC(C)=O)c(CC=C(C)C)c(OC(C)=O)c3c(=O)c2c1CC=C(C)C")
"Non-Toxic"
>>> reported_measurement("C=CCOc1cc2oc3cc(O)c(CC=C(C)C)c(O)c3c(=O)c2c(CC=C(C)C)c1OC")
"Non-Toxic"
>>> reported_measurement("COc1c(O)cc2c(c1CC=C(C)C)Cc1c(cc(O)c(CC=C(C)C)c1O)O2")
"Non-Toxic"
>>> reported_measurement("COc1c(O)cc2oc3cc(O)c(CC=C(C)C)c(OC(=O)C(C)C)c3c(=O)c2c1CC=C(C)C")
"Non-Toxic"
>>> reported_measurement("COc1c(O)cc2oc3cc(O)c(CC=C(C)C)c(OC(C)=O)c3c(=O)c2c1CC=C(C)C")
"Non-Toxic"

Now, please, on to the next compound.
q: Which value of Activity has been reported for COc1c(O)cc2oc3cc(O)c(CC=C(C)C)c(O)c3c(=O)c2c1CC=C(C)C [MANGOSTIN] in the records?
a: Non-Toxic

* * *

What MIC was measured for each of the following?
- Test system: Staphylococcus aureus
- Assay comment: Antibacterial activity against Staphylococcus aureus ATCC 29213 assessed as inhibition of bacterial growth incubated for 18 to 24 hrs by broth microdilution assay
- Format: functional
- Conditions used: time 18-24 hrs

Worked examples follow.
>>> reported_measurement("COc1c(O)cc2oc3cc(O)c(CCC(C)C)c(O)c3c(=O)c2c1CCC(C)C")
"32 mg/L"
>>> reported_measurement("COc1c(OC(C)=O)cc2oc3cc(OC(C)=O)c(CC=C(C)C)c(O)c3c(=O)c2c1CC=C(C)C")
"> 256 mg/L"
>>> reported_measurement("COc1c(O)cc2oc3cc(OC(=O)C(C)C)c(CC=C(C)C)c(O)c3c(=O)c2c1CC=C(C)C")
"> 256 mg/L"
>>> reported_measurement("COc1c(O)cc2oc3cc(O)c(CC=C(C)C)c(OC(C)=O)c3c(=O)c2c1CC=C(C)C")
"4 mg/L"
>>> reported_measurement("COc1c(OC(=O)C(C)C)cc2oc3cc(O)c(CC=C(C)C)c(O)c3c(=O)c2c1CC=C(C)C")
"> 256 mg/L"

Below are 4 compounds. Give each one its MIC.
1. COc1c(OC(=O)C(C)C)cc2oc3cc(OC(=O)C(C)C)c(CC=C(C)C)c(O)c3c(=O)c2c1CC=C(C)C
2. COc1c(O)cc2oc3cc(O)c(CC=C(C)C)c(O)c3c(=O)c2c1CC=C(C)C
3. COc1c(OCCCCCCO)cc2oc3cc(O)c(CC=C(C)C)c(O)c3c(=O)c2c1CC=C(C)C
4. C=CCOc1cc2oc3cc(OCC=C)c(OC)c(CC=C(C)C)c3c(=O)c2c(O)c1CC=C(C)C

a:
["> 256 mg/L", "2 mg/L", "> 256 mg/L", "> 256 mg/L"]

* * *

- Test system: Staphylococcus aureus
- Assay comment: Antibacterial activity against Staphylococcus aureus ATCC 33591 assessed as inhibition of bacterial growth incubated for 18 to 24 hrs by broth microdilution assay
- Format: functional
- Conditions used: time 18-24 hrs
What MIC was measured for each of the following?

>>> reported_measurement("COc1c(OCCCCCCO)cc2oc3cc(OCCCCCCO)c(CC=C(C)C)c(O)c3c(=O)c2c1CC=C(C)C")
"> 256 mg/L"

Below are 6 compounds. Give each one its MIC.
1. COc1c(OCCCCCCO)cc2oc3cc(O)c(CC=C(C)C)c(O)c3c(=O)c2c1CC=C(C)C
2. COc1c(O)cc2oc3cc(O)c(CC=C(C)C)c(O)c3c(=O)c2c1CC=C(C)C
3. COc1c(O)cc2oc3cc(O)c(CC=C(C)C)c(OC(C)=O)c3c(=O)c2c1CC=C(C)C
4. COc1c(OC(=O)C(C)C)cc2oc3cc(O)c(CC=C(C)C)c(O)c3c(=O)c2c1CC=C(C)C
5. COc1c(O)cc2oc3cc(OC(=O)C(C)C)c(CC=C(C)C)c(O)c3c(=O)c2c1CC=C(C)C
6. COc1c(OCc2ccccc2)cc2oc3cc(OCc4ccccc4)c(CC=C(C)C)c(OCc4ccccc4)c3c(=O)c2c1CC=C(C)C

a:
> 256 mg/L
1 mg/L
1 mg/L
> 256 mg/L
> 256 mg/L
> 256 mg/L

Below are 7 compounds. Give each one its MIC.
1. C=CCOc1cc2oc3cc(OCC=C)c(OC)c(CC=C(C)C)c3c(=O)c2c(O)c1CC=C(C)C
2. COc1c(O)cc2oc3cc(O)c(CC=C(C)C)c(OC(=O)C(C)C)c3c(=O)c2c1CC=C(C)C
3. COc1c(OC(C)=O)cc2oc3cc(OC(C)=O)c(CC=C(C)C)c(OC(C)=O)c3c(=O)c2c1CC=C(C)C
4. COc1cc2oc3cc(OC)c(OC)c(CC=C(C)C)c3c(=O)c2c(OC)c1CC=C(C)C
5. COc1c(OC(=O)C(C)C)cc2oc3cc(OC(=O)C(C)C)c(CC=C(C)C)c(OC(=O)C(C)C)c3c(=O)c2c1CC=C(C)C
6. COc1c(O)cc2oc3cc(O)c(CCC(C)C)c(O)c3c(=O)c2c1CCC(C)C
7. COc1c(O)cc2oc3cc4c(c(O)c3c(=O)c2c1CC=C(C)C)CCC(C)(C)O4

a:
> 256 mg/L
1 mg/L
> 256 mg/L
> 256 mg/L
> 256 mg/L
64 mg/L
32 mg/L

Below are 3 compounds. Give each one its MIC.
1. COc1c(OC(C)=O)cc2oc3cc(OC(C)=O)c(CC=C(C)C)c(O)c3c(=O)c2c1CC=C(C)C
2. COc1c(O)cc2c(c1CC=C(C)C)Cc1c(cc(O)c(CC=C(C)C)c1O)O2
3. C=CCOc1cc2oc3cc(OCC=C)c(OC)c(CC=C(C)C)c3c(=O)c2c(OC(C)=O)c1CC=C(C)C

a:
> 256 mg/L
8 mg/L
> 256 mg/L
